I'd appreciate it if you could supply inhibition at 0.3 µM values for the items below.
Biological target: hKv1.5 (Homo sapiens)
Sequence (P22460 whole entry): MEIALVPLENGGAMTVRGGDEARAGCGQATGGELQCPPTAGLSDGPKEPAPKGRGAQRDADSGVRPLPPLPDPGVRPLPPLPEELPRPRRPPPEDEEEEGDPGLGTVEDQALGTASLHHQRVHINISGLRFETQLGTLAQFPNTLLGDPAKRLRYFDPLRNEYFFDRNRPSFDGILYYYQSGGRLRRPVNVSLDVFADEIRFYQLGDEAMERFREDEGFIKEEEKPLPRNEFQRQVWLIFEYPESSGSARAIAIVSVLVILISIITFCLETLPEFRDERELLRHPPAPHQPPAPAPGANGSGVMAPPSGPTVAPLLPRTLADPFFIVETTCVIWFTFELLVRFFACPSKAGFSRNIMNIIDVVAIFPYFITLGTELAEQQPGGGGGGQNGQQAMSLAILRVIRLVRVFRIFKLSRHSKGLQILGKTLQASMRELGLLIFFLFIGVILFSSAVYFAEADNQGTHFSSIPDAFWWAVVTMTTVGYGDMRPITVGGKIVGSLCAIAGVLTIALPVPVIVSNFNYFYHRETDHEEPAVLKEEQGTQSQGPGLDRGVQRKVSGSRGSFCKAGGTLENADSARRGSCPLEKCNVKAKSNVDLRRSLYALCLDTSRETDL
Assay: hKv1.5 % inhibition
Assay type: cell-based
Details: read-out: hKv1.5 % inh. 300 nM
Give bare numbers, in %.

{"Line notation": "CC(=O)N1CCc2cc(N(Cc3ccc(Cl)cc3)S(=O)(=O)c3ccn(C)n3)ccc21", "inhibition at 0.3 µM / %": 86.1}

Please give inhibition at 0.3 µM, item by item, for the list that follows.
1. Cn1ccc(S(=O)(=O)N(Cc2ccc(Cl)cc2)c2ccc3c(c2)CCN3C(=O)CC#N)n1
2. Cn1cnc(S(=O)(=O)N(Cc2ccc(Cl)cc2)c2ccc3c(c2)CCN3)c1

Response line:
1. 48.3
2. 20.5

Prompt line: Record `COCCC(=O)N1CCc2cc(N(Cc3ccc(Cl)cc3)S(=O)(=O)c3ccn(C)n3)ccc21` : what is its inhibition at 0.3 µM with hKv1.5 (Homo sapiens)?
Response line: 65.2

Sourced from patent US8426442B2
